Ref: PubChem BioAssay (NCI)

Test system: NCI-H522 lung
Experiment: NCI tumour cell line growth inhibition, 48 h
assayReadout: TGI (µM)
Please state the figure in µM; there is no need to write the unit.

In [3]: df
Out[3]:
                                   molecule   u  observedvalue
0  O=C(CC1(O)C(=O)Nc2c(Cl)ccc(Cl)c21)c1ccc2ccccc2c1 (stereo not given)  µM           9.24

Please examine the following record next.
Prompt: State the recorded TGI for this entry: Cn1c(=O)nc2n(-c3cccc(Br)c3)c3ccccc3nc-2c1=O
Response: 20.1

###

System: SNB-75 CNS
Experiment: NCI tumour cell line growth inhibition, 48 h
assayReadout: log10 of TGI (log10 of the value in µM)
In plain terms, each number is the log10 of measured TGI in µM.

                                   compound  assayreadout  observedvalue
0  CC(=O)OC[C@]1(O)CC[C@@]23CC1C[C@@H]2CCC1C(C)(C)CCC[C@@]13C (some centres not stated)  log10 of TGI           1.48
1  N#Cc1c(Cl)cccc1Oc1ccc(S(=O)(=O)/N=C(\NN)Nc2ccc(Cl)cc2)cc1  log10 of TGI           1.74
2  Cc1c(-c2c(-c3ccc(F)o3)sc3ncnc(O[C@H](Cc4ccccc4OCc4ccnn4CC(F)(F)F)C(=O)O)c23)ccc(OCCN2CCN(C)CC2)c1Cl  log10 of TGI           0.75
3  O=C1c2ccccc2C(=O)[C@@]23O[C@@]12C1(Oc2cccc4cccc(c24)O1)[C@@H]1O[C@@H]1[C@@H]3O  log10 of TGI           1.38
4  O=C1c2ccccc2NC(=O)C2C1C(c1ccccc1)CC2(O)c1ccccc1 (configuration not stated)  log10 of TGI          -1.17

Prompt: State the recorded log10 of TGI for this entry: O=C1C(=O)c2ccccc2C(O)=C1CC=C(Br)Br
Response: 1.77

Prompt: State the recorded log10 of TGI for this entry: CCOC(=O)N1CCc2cc(OC)c(OC)c3c2c1cc1cc(OC)c(OC)cc13
Response: 0.92

###

System: PC-3 prostate
Test: NCI tumour cell line growth inhibition, 48 h; in the data active = GI50 below about 0.43 µM; inactive = the rest
A correct response names exactly one class from active, inactive

Prompt: Dear all, I need the recorded test outcome for Cc1ccccc1N=Nc1ccc(NC(=O)c2ccnn2C)c(C)c1 , thank you.
Response: inactive

Prompt: Dear all, I need the recorded test outcome for O=C(CNc1ccc2c(c1)C(=O)c1ccccc1C2=O)Nc1ccc2c(c1)C(=O)c1ccccc1C2=O , thank you.
Response: inactive

Prompt: Dear all, I need the recorded test outcome for COc1cc2cc(Oc3ccc(NC(=O)Nc4cccc(C(F)(F)F)c4)cc3)c(C)nc2cc1OC , thank you.
Response: inactive

Prompt: Dear all, I need the recorded test outcome for COc1cc(-c2nn(-c3cccc(NC(=O)Nc4cc(C(F)(F)F)cc(C(F)(F)F)c4)c3)cc2-c2ccncc2)ccc1Cl , thank you.
Response: active

###

System: MDA-MB-231 breast
Assay: NCI tumour cell line growth inhibition, 48 h; in the data active means GI50 below about 0.43 µM; inactive means the rest
A correct response names exactly one class from y = active, n = inactive

Please review the entries below; each comes with its answer.
                                   compound  cat
0  COc1cc2c3c(n(CCCN)c(=O)c2cc1OC)-c1cc2c(cc1/C3=C\CCN)OCO2    n
1  O=C(Nc1cc(Cl)cc(Cl)c1)c1ccc(NC2=C(Cl)C(=O)N(Cc3ccc(Cl)cc3Cl)C2=O)cc1    n
2  COC(=O)C1=C(C(=O)ON)C2C=CC1(C(Cc1ccccc1)Nc1ccccc1)O2 (stereo not given)    n
3  CCCc1cc2c(=O)c(C(=O)OC)c[nH]c2cc1N(CC)CC    n
4  Cn1c(/C=C(\C#N)c2ccccc2)nc2c(N3CCOCC3)nc(Cl)nc21    n
5           C/C(=N/Nc1nc2ccccc2n1C)c1ccccn1    y
6  COc1ccc(/C=C\c2cc(OC)c(OC)c(OC)c2)cc1OC(=O)c1cccc(Cn2cc(CCOC(=O)[C@H](N)Cc3cn(C)c4ccccc34)nn2)c1    y
7  c1ccc2[nH]c(-c3ccc(NN=Nc4ccncc4)cc3)nc2c1    n
8     C/C(=N\Nc1cc(C)c2cc(C)ccc2n1)c1ccccn1    y

Prompt: Dear all, I need the recorded test outcome for Cc1ccccc1N=Nc1ccc(NC(=O)c2ccnn2C)c(C)c1 , thank you.
Response: n
